Reported values of TGI for individual entries
System: MALME-3M melanoma
Assay: NCI tumour cell line growth inhibition, 48 h
Reported Property: TGI

{"Molecule": "CCCCCCCCCCCCCCCCCCNc1ccn(C2OC(COP(=O)(O)OCC3OC(n4cc(F)c(NCCCCCCCCCCCCCCCCCC)nc4=O)CC3O)C(O)C2O)c(=O)n1 (stereo not drawn)", "Reported": "> 100 µM"}
{"Molecule": "CC[N+]1(C)CCC(O)(c2ccc(Cl)c(Cl)c2)C(C(=O)c2ccc(Cl)c(Cl)c2)C1 (stereo not drawn)", "Reported": "> 10 µM"}
{"Molecule": "CS[C@]12C(=O)C[C@@]3(C)[C@@H](CC[C@]3(O)C(=O)CO)[C@@H]1CCC1=CC(=O)CC[C@@]12C", "Reported": "> 100 µM"}
{"Molecule": "O=c1ccn(CC2(CO)CC(Cc3ccccc3)C2)c(=O)[nH]1 (stereo not drawn)", "Reported": "> 100 µM"}
{"Molecule": "COc1c(O)cc(O)c2c(=O)cc(-c3ccccc3)oc12", "Reported": "> 100 µM"}
{"Molecule": "Nc1[nH]nc2nc(-c3cccs3)cc(C(F)(F)F)c12", "Reported": "> 25 µM"}
{"Molecule": "COc1c(Cl)cc(NC(=S)C#N)cc1Cl", "Reported": "59.6 µM"}
{"Molecule": "Cc1ccc(C)c(NC(=O)CC/C(=N\\NC(=O)c2c(O)ccc3ccccc23)C(C)C(=O)c2ccc(O)cc2)c1 (stereo not drawn)", "Reported": "90.2 µM"}
{"Molecule": "O=C(Cn1c(C(=O)/C=C/c2cccs2)nc2ccccc21)c1ccc(Cl)cc1", "Reported": "54.7 µM"}
{"Molecule": "C=C(CO[Si](C)(C)C(C)(C)C)C(C)=O", "Reported": "39.7 µM"}
{"Molecule": "CC(=O)Nc1ccc(OC2=CCN(C)CC2)cc1", "Reported": "> 100 µM"}
{"Molecule": "CC1(c2ccc[n+](Cc3ccccc3)c2)OCCO1", "Reported": "> 100 µM"}
{"Molecule": "CCOC(=O)C(=Cc1cccnc1C)C(=O)OCC", "Reported": "26.8 µM"}
{"Molecule": "COc1cc2cc[n+]3c(C)c4cc(OC)c(OC)cc4c([O-])c3c2cc1OC", "Reported": "79.7 µM"}
{"Molecule": "COc1ccc(OC)c2c1C(=O)C1CC1(Br)C2=O (stereo not drawn)", "Reported": "> 100 µM"}
{"Molecule": "CC(C)(Oc1ccc(Cl)cc1)C(=O)N(C(=O)N1CCC(c2ccccc2)CC1)c1ccccc1", "Reported": "> 100 µM"}
{"Molecule": "NC(=O)c1c(NC(=O)c2ccc3c(c2)OCO3)sc2c1CCC(=O)C2", "Reported": "4.67 µM"}
{"Molecule": "COc1ccc(NC(C)=O)cc1N1C(=O)/C(=C\\c2cc(OC)c(OC)c(OC)c2)SC1c1ccccc1 (stereo not drawn)", "Reported": "> 100 µM"}

* * *

Reported values of TGI for individual entries
Tested on: SF-295 CNS
Test: NCI tumour cell line growth inhibition, 48 h

{"Compound": "CC[N+]1(C)CCC(O)(c2ccc(Cl)c(Cl)c2)C(C(=O)c2ccc(Cl)c(Cl)c2)C1 (centres undefined)", "TGI": "> 10 µM"}
{"Compound": "O=C(c1ccccc1)c1cccc(C(=O)c2ccccc2)c1", "TGI": "> 100 µM"}
{"Compound": "Oc1c([Si](c2ccccc2)(c2ccccc2)c2ccccc2)cc2ccccc2c1-c1c(O)c([Si](c2ccccc2)(c2ccccc2)c2ccccc2)cc2ccccc12", "TGI": "> 100 µM"}
{"Compound": "Nc1ncnc2c1nnn2C1CCC(CP(=O)(O)O)C1 (centres undefined)", "TGI": "> 100 µM"}

* * *

Tested on: ACHN renal
Assay: NCI tumour cell line growth inhibition, 48 h

{"Compound": "COc1ccc(-c2c(C#N)c(S)n(NS(=O)(=O)c3ccc(C)cc3)c(=O)c2C#N)cc1", "TGI": "41.3 µM"}
{"Compound": "O=c1nc2oc3ccc4ccccc4c3cc-2s1", "TGI": "> 100 µM"}
{"Compound": "COC(=O)c1c(OC(C)=O)ccc2c1c1c(n2C)C(=O)c2ccccc2C1=O", "TGI": "51.5 µM"}
{"Compound": "O=c1oc2ccccc2cc1-c1cn2cc(Cl)ccc2n1", "TGI": "3.31 µM"}
{"Compound": "CC#CC(=O)SCCNC(=O)CC", "TGI": "> 10 µM"}
{"Compound": "CN(C)c1nc2oc(-c3ccccc3)c(-c3ccccc3)c2c2nnnn12", "TGI": "> 100 µM"}
{"Compound": "O=C(O)c1nc(-c2ccccc2)[nH]c1C(=O)O", "TGI": "30.7 µM"}
{"Compound": "CN1c2ccccc2N(C)C23N(C)c4ccccc4N(C)C12N(C)c1ccccc1N3C (stereo not given)", "TGI": "> 100 µM"}
{"Compound": "COC(=O)C1=C(c2cc(OC)c(OC)c(OC)c2)OC(c2ccc(OC)c(OC)c2)C1 (stereo not given)", "TGI": "> 100 µM"}
{"Compound": "COC1OC2COC1(OC)C1OC(C)(C)OC21 (stereo not given)", "TGI": "> 100 µM"}
{"Compound": "Cc1cc(N2CCCC2)nc(N(CCNc2ccnc3cc(Cl)ccc23)Cc2ccco2)n1", "TGI": "> 100 µM"}
{"Compound": "CN(/N=C/c1cccc2cccnc12)c1ccccc1", "TGI": "> 100 µM"}
{"Compound": "COc1cc2c(cc1OC)C(Cl)C(c1ccc(Cl)c(Cl)c1)=C2Cl (stereo not given)", "TGI": "21.8 µM"}
{"Compound": "CC(C)(Oc1ccc(Cl)cc1)C(=O)N(C(=O)N1CCC(c2ccccc2)CC1)c1ccccc1", "TGI": "> 100 µM"}
{"Compound": "O=C(c1ccccc1)c1cccc(C(=O)c2ccccc2)c1", "TGI": "> 100 µM"}
{"Compound": "COc1c(O)cc(O)c2c(=O)cc(-c3ccccc3)oc12", "TGI": "> 100 µM"}
{"Compound": "C[CH2][Sn]([CH2]C)([O]C(=O)C(OC(C)=O)c1ccccc1)[O]C(=O)C(OC(C)=O)c1ccccc1 (stereo not given)", "TGI": "31.1 µM"}
{"Compound": "CC1=C2C(=CC(C)(C)C2O)C(=O)C(C)(O)C12CC2 (stereo not given)", "TGI": "0.0373 µM"}
{"Compound": "COc1ccc(C(=O)/C=C/c2c(Cl)c3c(c(OC)c2Cl)OCC(=O)N3)cc1", "TGI": "3.64 µM"}
{"Compound": "COc1ccc(/C=C2\\CCCC3=C2NC(N)=NC3c2ccc(OC)c(OC)c2)cc1OC (stereo not given)", "TGI": "> 76.2 µM"}
{"Compound": "O=C(Cn1c(C(=O)/C=C/c2cccs2)nc2ccccc21)c1ccc(Cl)cc1", "TGI": "> 100 µM"}
{"Compound": "COc1cccc(-n2ncc3c(N/N=C/c4ccncc4)ncnc32)c1", "TGI": "> 25 µM"}
{"Compound": "Nc1ncnc2c1nnn2C1CCC(CP(=O)(O)O)C1 (stereo not given)", "TGI": "> 100 µM"}
{"Compound": "COc1ccccc1NC(=O)CC(=O)N1N=C(C)C(N=Nc2ccc(C(=O)O)cc2)C1=O (stereo not given)", "TGI": "> 100 µM"}
{"Compound": "CC(=O)Oc1c2oc3ccc(Cl)cc3c(=O)c2c(O)c2ccsc12", "TGI": "> 100 µM"}
{"Compound": "Cc1cccc(C(C)C)c1NC(=O)CC1C(=O)Nc2ccccc2S1(=O)=O (stereo not given)", "TGI": "> 58.2 µM"}
{"Compound": "Clc1nc(Cl)c2ncn(C/C=C/COc3cccc(OC/C=C/Cn4cnc5c(Cl)nc(Cl)nc54)c3)c2n1", "TGI": "> 100 µM"}
{"Compound": "COc1ccc(/C=N/N=C(\\N)NO)c(OC)c1", "TGI": "> 100 µM"}
{"Compound": "O=C(/C=C/c1ccc([N+](=O)[O-])cc1)c1ccc2c3c(cccc13)CC2", "TGI": "> 100 µM"}
{"Compound": "Cn1cc(C2=C(c3cccc(OCC(O)CO)c3)C(=O)NC2=O)c2ccccc21 (stereo not given)", "TGI": "> 25 µM"}

* * *

System: HOP-62 NSCLC
Assay: NCI tumour cell line growth inhibition, 48 h

{"Compound": "c1ccc2c(c1)CCc1c-2n(CCN2CCOCC2)c2ccccc12", "TGI": "> 100 µM"}
{"Compound": "COC(=O)C(CSSC[C@H](N/C(C)=C/C(C)=O)C(=O)OC)N/C(C)=C/C(C)=O (stereo partly specified)", "TGI": "> 100 µM"}
{"Compound": "COc1ccc(C(=O)c2cc3c(N)c(C(=O)Nc4cccc5ccccc45)sc3nc2C)cc1", "TGI": "> 50 µM"}
{"Compound": "O=C(O)c1ccn(-c2cccc(-n3ccc(C(=O)O)n3)n2)n1", "TGI": "> 100 µM"}
{"Compound": "CCOC(=O)C(=Cc1cccnc1C)C(=O)OCC", "TGI": "40.7 µM"}
{"Compound": "Cc1ccc2c(c1C)C(=O)/C(=C/c1ccccc1C(=O)O)C2", "TGI": "> 100 µM"}
